System: HOP-62 NSCLC
Assay Procedure: NCI-60 one-dose screen, 48 h
Conditions: 10 µM unless noted
About 83,000 compounds went through this panel and 20% of them were active in at least one assay; those are over-represented in the sample as a whole. Calls of active or inactive are those of the source. The calls were made as follows: active = growth percent below 10; inactive = the rest.
Labels: active, inactive

c1ccc(C(Nc2ccccn2)(c2ccccc2)c2ccccc2)cc1 = inactive
C#CC[C@@H]1C[C@]2(C)[C@H]3CC=C4[C@H]5CC(C)(C)CC[C@]5(C(=O)NCCCCN)CC[C@@]4(C)[C@]3(C)CC[C@H]2C(C)(C)[C@H]1OC(C)=O = inactive
CCN1CCN(Cc2ccc(NC(=O)c3nc4ccc5[nH]ncc5c4c4c3CCCC4)cc2C(F)(F)F)CC1 = active
CC(C)(C)c1ccc(Cn2c(-c3nonc3N)nc3ccccc32)cc1 = inactive
NS(=O)(=O)c1ccc(N2N=C(c3cccs3)CC2c2ccccc2O)cc1 (stereo not given) = inactive

* * *

Test system: SF-539 CNS
Assay Procedure: NCI-60 one-dose screen, 48 h (100 = growth as untreated, 0 = no growth, -100 = all killed)
Conditions: 10 µM unless noted
This is part of a sample that, as a whole, favours compounds with a hit. Of some 83,000 tested, about 20% had one in any assay.
Readout Type: growth (%)

COc1cc2c(cc1I)-c1c(cc(OC)c(OC)c1OC)CC[C@@H]2NC(C)=O = -30.6
CC(=O)OC1Oc2ccccc2-c2oc3nc(=N)n(C)c-3cc21 (stereo not drawn) = 102
Nc1c(C(=O)c2ccc(Br)cc2)sc2nc3c(cc12)CCCC3 = 92
C=CCn1c(SCC(=O)Nc2ccc(C(=O)/C=C/c3ccccc3)cc2)nnc1-c1ccc(OC)c(OC)c1 = 92.1
C=C(CN1CC=CCC1)[C@@H]1CC[C@]2(C(=O)OC)CC[C@]3(C)[C@H](CC[C@@H]4[C@@]5(C)CC[C@H](OC(C)=O)C(C)(C)[C@@H]5CC[C@]43C)[C@@H]12 = 93.3
NS(=O)(=O)c1ccc(N2N=C(c3ccc(Br)cc3)CC2c2cn(-c3ccccc3)nc2-c2ccc(Cl)cc2)cc1 (stereo not drawn) = 104
COc1ccc(-c2nc(-c3cc(OC)cc(OC)c3)[nH]c2-c2ccc(OC)cc2)cc1 = 80.5
SCc1ccc(CS)cc1 = 104
COc1cc(-c2csc(NC(=O)Nc3cccc(C(F)(F)F)c3)n2)cc(OC)c1OC = 67.1
CCC(C)C1NC(=O)c2nc(oc2-c2ccccc2)-c2csc(n2)-c2csc(n2)-c2nc(oc2C)-c2coc(n2)CNC(=O)C(C(C)CC)NC1=O (stereo not drawn) = -80.5
C=CCn1c(SCC(=O)Nc2ccc(/C(C)=N\O)cc2)nnc1-c1cc(-c2ccccc2)nc2ccccc12 = 50.6
CCCCCCCCCCCCCCCCOc1ccc(S(=O)(=O)N(C)C)cc1[N+](=O)[O-] = 89.6
COC1=CC(c2ccc[nH]2)=N/C1=C\c1[nH]c(C)c(C(=O)CCCCCCCCC(=O)O[C@H]2CC[C@H]3C4CCc5cc(O)ccc5C4CC[C@]23C)c1C (stereo partly drawn) = 32.5
CCCCNCC(O)c1cc(-c2ccc(C(F)(F)F)cc2)nc(-c2ccc(C(F)(F)F)cc2)c1 (stereo not drawn) = -74.9
CC1=C(C(=O)Nc2ccc(F)cc2)C(c2ccc(Cl)cc2)C2=C(CC(C)(C)CC2=O)N1 (stereo not drawn) = 94
Cc1ccc(S(=O)(=O)NC(CCC(=O)Nc2ccc(Cl)cc2)C(=O)Nc2ccc(Cl)cc2)cc1 (stereo not drawn) = -20.5
CCOC(=O)C1=C(C)NC(SCc2nnc(-c3ccc(Cl)cc3)o2)=NC1c1ccc(Br)cc1 (stereo not drawn) = 88.7
CC(C)=CCC[C@H](C)c1ccc(C)c2c1OCN(CCO)C2 = 88.2

* * *

Property: growth; scope: individual molecules
System: T-47D breast
Assay Procedure: NCI-60 one-dose screen, 48 h (100 = growth as untreated, 0 = no growth, -100 = all killed)
Conditions: 10 µM unless noted
Compounds without any hit were thinned out: in the full panel of roughly 83,000, 20% have a hit.
Readout Type: growth (%)

COc1ccc2[nH]cc(C(c3ccc(Cl)cc3)N3CCCC3)c2c1 (stereo unspecified) = 74
COc1cc(-c2nc(-c3nc4cc(C(=O)c5ccccc5)ccc4[nH]3)cc3c2[nH]c2ccccc23)cc(OC)c1OC = 88.9
NC(=Nc1ccccc1)SCCCSC(N)=Nc1ccccc1 = 70.1
CCN(CC)CCNc1c(C)cc(CO)c(Cl)c1C = 112
CCOC(=O)c1ccc(N(CCC(=O)O)C(C)=O)cc1 = 112
N=C(N)c1ccc(-c2ccc(-c3cc(Cl)cc(Cl)c3)o2)nc1 = -66.1

* * *

Catalogue of compounds with associated growth
System: SR leukemia
Assay Procedure: NCI-60 one-dose screen, 48 h (100 = growth as untreated, 0 = no growth, -100 = all killed)
Conditions: 10 µM unless noted
Compounds without any hit were thinned out: in the full panel of roughly 83,000, 20% have a hit.
Readout Type: growth (%)

Cc1cc(N=Nc2ccc(-c3ccc(N=Nc4ccc(O)c(C(=O)O)c4)cc3)cc2)c(N)c(N=Nc2ccc(C(=O)O)cc2)c1N = 75.9
COc1ccc(C2=CC(c3ccc(OC)cc3Br)N3C=CSC3=N2)cc1 (stereo unspecified) = -22.1
O=C(CI)NCCNc1cccc2c(S(=O)(=O)O)cccc12 = 90.4
Nc1nc(N)c2c(n1)NC(c1sc(Cl)nc1Cl)CC(c1ccc3c(c1)OCO3)=N2 (stereo unspecified) = 17.1
CC(C)c1ccc(Cn2ccc3c4c(N)nc(NC5CC5)nc4ccc32)cc1 = -45.8
O=C1c2ccccc2C2N1CCC1CCc3ccccc3N12 (stereo unspecified) = 114
O=C(CCc1nc2sc3c(c2c(=O)[nH]1)CCC3)NCc1cn(-c2ccccc2)nc1-c1ccccc1 = -18
C#CC[C@@H]1C[C@]2(C)[C@H]3CC=C4[C@H]5CC(C)(C)CC[C@]5(C(=O)NCCCCN)CC[C@@]4(C)[C@]3(C)CC[C@H]2C(C)(C)[C@H]1OC(C)=O = 0.939
COc1ccc2[nH]c(C(=O)OCc3ccc4c(Br)cc(Br)c(O)c4n3)cc2c1 = 2.81
Clc1ccc2c(c1)-c1ccccc1C1=NCCN12 = 8.25
CNC(=O)c1ccccc1Sc1ccc2c(/C=C/c3ccccn3)n[nH]c2c1 = 10.4
COC(=O)c1ccc(NC(N)=NCCC(C)(C)c2ccc(C(F)(F)F)cc2)nc1 = -22.2
COC1=CC(c2ccc[nH]2)=N/C1=C\c1[nH]c(C)c(C(=O)CCCCCCCCC(=O)O[C@H]2CC[C@H]3C4CCc5cc(O)ccc5C4CC[C@]23C)c1C (stereo partly specified) = -14.6
COc1ccc([C@@H]2[C@@H](Cl)C(=O)N2c2cc(OC)c(OC)c(OC)c2)cc1C = 9.63
C[C@@H](C[C@H](CC1CC1)c1ccccc1)c1ccc2ccccc2c1 = 106
COc1c(B(O)O)cccc1-c1nc2ccc3[nH]ncc3c2c2c1CCCC2 = 13.9
O=C1Cc2c([nH]c3ccc([N+](=O)[O-])cc23)-c2ccccc2N1 = -8.53
CC1C2CCC(C2)C1COCCOCCO (stereo unspecified) = 105
Nc1nonc1-c1nc2ccccc2n1Cc1ccc(F)cc1 = 22.3
CCN(CC)C(Cl)=Nc1ccc(Cl)cc1 = 84.3
COc1cc(C2Nc3ccccc3S2)cc(CN2CCOCC2)c1O (stereo unspecified) = 49
CC(C)(C)CC(C)(C)NCc1cc(C(C)(C)C)cc(CNC(C)(C)CC(C)(C)C)c1O = 1.23
Cc1ccc(NC(=O)c2nc(S(C)=O)oc2-c2ccc(F)cc2)cc1Nc1nccc(-c2cccnc2)n1 (stereo unspecified) = -14.7
Cc1cc(NC(=O)c2ccc(N)cc2)ccc1N=Nc1ccc2cc(S(=O)(=O)O)cc(S(=O)(=O)O)c2c1 = 107
COc1cc(/C=C/C(=O)c2c(C)nc3ccccc3c2C)ccc1OCCCOc1cc2c(cc1OC)C(=O)N1CCC[C@H]1C=N2 = -34.3
Nc1ccc(N(O)/C=C2\C=CC=CC2=O)cc1N = 95.3

* * *

Collected growth values appear next to each entry.
Test system: NCI-H322M lung
Assay Procedure: NCI-60 one-dose screen, 48 h (100 = growth as untreated, 0 = no growth, -100 = all killed)
Conditions: 10 µM unless noted
Compounds without any hit were thinned out: in the full panel of roughly 83,000, 20% have a hit.
Readout Type: growth (%)

CC(OC(=O)Nc1cccc(Cl)c1)C(=O)O (stereo not given) = 101
CC[C@H](Nc1nc(N)nc(N)c1Cl)c1nc2cccc(NCc3ccc(C(=O)NO)cc3)c2c(=O)n1-c1ccccc1 = 35.8
COc1cccc(NC(=O)[C@H](C(C)C)n2c(=O)[nH]c3ccccc3c2=O)c1 = 117
CCCCCCCCCCCCCCC(C(=O)OCC)C(=O)OCC = 104
Cc1ccc2nc(CN(CCN(Cc3nc4ccc(C)cc4[nH]3)Cc3nc4ccc(C)cc4[nH]3)Cc3nc4ccc(C)cc4[nH]3)[nH]c2c1 = -95.7
COc1ccc(-c2nn(-c3cccc(Cl)c3)cc2/C=C2\C(=N)N(c3ccccc3)N=C2N)cc1 = 44.9
CCCCNCCC(O)c1cc2ccc(C(F)(F)F)cc2c2cc(C(F)(F)F)ccc12 (stereo not given) = -37.6
CCCCCCCCCCC(C(O)c1ccccc1)N1CCCCC1 (stereo not given) = 45.8
CNC(=O)c1cc(Oc2ccc(NC(=O)c3nc(S(C)(=O)=O)sc3-c3ccc(F)cc3)cc2)ccn1 = 28.2
Cc1cc(NC(=O)C2c3ccccc3C(=O)N(CC(C)C)C2c2cccs2)no1 (stereo not given) = 107
